- run-description: Oral bioavailability in rat
- Assay type: ADME, organism-based
- measurement-setup: in vivo
measured-quantity: bioavailability (%)
Could you give me the number in %? Just the number is fine.

Reported bioavailability for "N#CC1(NC(=O)[C@@H]2CCCC[C@H]2C(=O)N2CCN(c3ccc(F)cc3)CC2)CC1" was 0

* * *

- run-description: in vivo
- measurement-setup: beagle, dog, plasma, iv, 1 mg/kg
measured-quantity: clearance (L/h/kg)
Give just the numeric value; L/h/kg need not be written.

Entry "COc1ccc(N2CCN(C(=O)[C@@H]3CCCC[C@H]3C(=O)NC3(C#N)CC3)CC2)cc1OC" — recorded clearance = 0.72

* * *

- run-description: Metabolic stability of the compound in rat liver microsomes assessed as compound turnover after 120 mins
Answer each item with its documented microsomal CLint at 2 h.
Only the number, expressed in µL/min/mg, is required.

For "N#CCNC(=O)[C@@H]1CCCC[C@H]1C(=O)N1CCN(c2ccc(F)cc2)CC1" the compound record lists microsomal CLint at 2 h as 31

Value of measured microsomal CLint at 2 h for the entry "Cc1nn(C)c2cc(N3CCN(C(=O)[C@@H]4CCCC[C@H]4C(=O)NC4(C#N)CC4)[C@H](C)C3)ccc12" : 15

# compound "COc1ccc(N2CCN(C(=O)[C@@H]3CCCC[C@H]3C(=O)NCC#N)CC2)cc1OC" ; its microsomal CLint at 2 h = 6.8

Data point: "COc1cccc(N2CCN(C(=O)[C@@H]3CCCC[C@H]3C(=O)NCC#N)CC2)c1" ; microsomal CLint at 2 h = 149

* * *

Would you mind telling me the reported microsomal CLint at 2 h of each entry?
- run-description: Metabolic stability of the compound in human liver microsomes assessed as compound turnover after 120 mins
Give the value, in units of µL/min/mg, as a plain number.

Kindly note the recorded microsomal CLint at 2 h for "COc1ccc(N2CCN(C(=O)[C@@H]3CCCC[C@H]3C(=O)NCC#N)CC2)cc1OC" , which is 2.2

The recorded microsomal CLint at 2 h for "C[C@@H]1CN(c2ccccc2)CCN1C(=O)[C@@H]1CCCC[C@H]1C(=O)NCC#N" is 16

Item: "N#CC1(NC(=O)[C@@H]2CCCC[C@H]2C(=O)N2CCN(c3ccccc3)CC2)CC1" | microsomal CLint at 2 h: 6.9

Per the record, "Cc1nn(C)c2cc(N3CCN(C(=O)[C@@H]4CCCC[C@H]4C(=O)NC4(C#N)CC4)[C@H](C)C3)ccc12" has microsomal CLint at 2 h of 8.8

* * *

- run-description: Aqueous solubility of the compound in at pH 7.4
- measurement-setup: buffer
measured-quantity: solubility

solubility reading for "COc1cc(N2CCN(C(=O)[C@@H]3CCCC[C@H]3C(=O)NC3(C#N)CC3)[C@H](C)C2)ccc1C1CC1" : 200 µM

Measured solubility, "COc1ccc(N2CCN(C(=O)[C@@H]3CCCC[C@H]3C(=O)NC3(C#N)CC3)[C@H](C)C2)cc1OC" : > 2400 µM

Sample "COc1ccc(N2CCN(C(=O)[C@@H]3CCCC[C@H]3C(=O)NC3(C#N)CC3)CC2)cc1OC" ; solubility observed: > 2500 µM

The compound listed as "COc1ccc(N2CCN(C(=O)[C@@H]3CCCC[C@H]3C(=O)NC3(C#N)CC3)CC2)cc1" shows solubility equal to > 2000 µM

// field: solubility; key: "CS(=O)(=O)c1ccc(N2CCN(C(=O)[C@@H]3CCCC[C@H]3C(=O)NC3(C#N)CC3)CC2)cc1" ; value = 2500 µM

Summary for this compound, "COc1ccc(N2CCN(C(=O)[C@@H]3CCCC[C@H]3C(=O)NCC#N)CC2)cc1" : solubility is 390 µM

The reported solubility of the compound "Cc1noc2cc(N3CCN(C(=O)[C@@H]4CCCC[C@H]4C(=O)NC4(C#N)CC4)[C@H](C)C3)ccc12" was 600 µM

The recorded solubility for entry "N#CCNC(=O)[C@@H]1CCCC[C@H]1C(=O)N1CCN(c2ccc(F)cc2)CC1" equals > 3700 µM

* * *

- run-description: Oral bioavailability in Alderley Park Han Wistar rat at 2 mg/kg
- Assay type: ADME, organism-based
- measurement-setup: in vivo
measured-quantity: bioavailability (%)
Provide the reading as a plain figure in %.

So for "Cc1nnc(C)c2cc(N3CCN(C(=O)[C@@H]4CCCC[C@H]4C(=O)NC4(C#N)CC4)[C@H](C)C3)ccc12" , the logged bioavailability turned out to be 1.4

get_value(item= "Cc1noc2cc(N3CCN(C(=O)[C@@H]4CCCC[C@H]4C(=O)NC4(C#N)CC4)[C@H](C)C3)ccc12" , readout=bioavailability) returns 21

// sample "COc1ccc(N2CCN(C(=O)[C@@H]3CCCC[C@H]3C(=O)NC3(C#N)CC3)[C@H](C)C2)nc1OC" , its bioavailability was 55

Form field bioavailability, entry "CS(=O)(=O)c1ccc(N2CCN(C(=O)[C@@H]3CCCC[C@H]3C(=O)NC3(C#N)CC3)CC2)cc1" : 16

* * *

- target-desc: Procathepsin L (Homo sapiens, UniProt P07711)
- Sequence (P07711 whole entry): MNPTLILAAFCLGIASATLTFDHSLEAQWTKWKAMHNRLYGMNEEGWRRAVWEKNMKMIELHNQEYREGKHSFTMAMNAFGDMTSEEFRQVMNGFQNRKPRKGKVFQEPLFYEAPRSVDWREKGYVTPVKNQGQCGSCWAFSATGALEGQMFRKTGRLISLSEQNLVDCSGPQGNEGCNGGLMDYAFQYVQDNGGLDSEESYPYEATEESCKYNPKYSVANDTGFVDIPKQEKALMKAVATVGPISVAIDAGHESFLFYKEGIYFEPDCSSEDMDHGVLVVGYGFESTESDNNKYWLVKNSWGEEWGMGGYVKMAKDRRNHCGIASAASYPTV
- run-description: Inhibition of human recombinant cathepsin-L using Z-Phe-Arg-AMC as substrate preincubated for 15 mins measured after 1 hr by QFRET assay
pIC50: −log10 of the molar value.
measured-quantity: pIC50

Summary for this compound, "N#CC1(NC(=O)[C@@H]2CCCC[C@H]2C(=O)N2CCN(c3ccccc3)CC2)CC1" : pIC50 is < 5.00

Value of pIC50 reported for the compound "COc1ccc(N2CCN(C(=O)[C@@H]3CCCC[C@H]3C(=O)NC3(C#N)CC3)[C@H](C)C2)cc1OC" is < 5.00

Record "Cc1nn(C)c2ccc(N3CCN(C(=O)[C@@H]4CCCC[C@H]4C(=O)NC4(C#N)CC4)[C@H](C)C3)cc12" , field pIC50: < 5.00

Documented pIC50 of "N#CCNC(=O)[C@@H]1CCCC[C@H]1C(=O)N1CCN(c2ccc(F)cc2)CC1" : < 5.00

* * *

Please respond with reported bioavailability for every item in the list.
- run-description: Oral bioavailability in Alderley Park Han Wistar rat at 2 mg/kg
- Assay type: ADME, organism-based
- measurement-setup: in vivo
State just the number; it will be interpreted in %.

# bioavailability of "Cc1nn(C)c2cc(N3CCN(C(=O)[C@@H]4CCCC[C@H]4C(=O)NC4(C#N)CC4)[C@H](C)C3)ccc12" = 87

According to the records, this compound "COc1cc(N2CCN(C(=O)[C@@H]3CCCC[C@H]3C(=O)NC3(C#N)CC3)[C@H](C)C2)ccc1C1CC1" displays bioavailability of 57

Lookup result for "COc1ccc(N2CCN(C(=O)[C@@H]3CCCC[C@H]3C(=O)NC3(C#N)CC3)[C@H](C)C2)cc1OC" ; measured bioavailability: 46

Notebook: "N#CC1(NC(=O)[C@@H]2CCCC[C@H]2C(=O)N2CCN(c3ccc(F)cc3)CC2)CC1" , bioavailability read as 0

* * *

- target-desc: UniProtKB P43235
- Sequence (P43235 whole entry): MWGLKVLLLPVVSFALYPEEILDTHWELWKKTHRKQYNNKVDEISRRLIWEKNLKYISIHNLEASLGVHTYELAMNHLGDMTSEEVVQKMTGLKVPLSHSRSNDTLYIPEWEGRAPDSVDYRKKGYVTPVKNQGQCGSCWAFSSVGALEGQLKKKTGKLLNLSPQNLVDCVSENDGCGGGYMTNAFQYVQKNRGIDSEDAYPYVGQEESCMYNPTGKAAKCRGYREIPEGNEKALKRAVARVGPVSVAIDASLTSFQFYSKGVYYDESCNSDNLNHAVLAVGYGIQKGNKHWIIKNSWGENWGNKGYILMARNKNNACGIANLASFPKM
- run-description: Inhibition of human recombinant cathepsin-k using Z-Phe-Arg-AMC as substrate preincubated for 15 mins measured after 1 hr by QFRET assay
Please provide measured IC50 for the entries that follow.
# number only, unit nM dropped from output

Just so you know, measured IC50 for "C[C@@H]1CN(c2ccccc2)CCN1C(=O)[C@@H]1CCCC[C@H]1C(=O)NC1(C#N)CC1" came out at 11

According to the records, this molecule "COc1ccc(N2CCN(C(=O)[C@@H]3CCCC[C@H]3C(=O)NCC#N)CC2)cc1OC" displays IC50 of 6

"COc1cc(N2CCN(C(=O)[C@@H]3CCCC[C@H]3C(=O)NC3(C#N)CC3)[C@H](C)C2)ccc1C1CC1" has a reported IC50 of 3

Memo: "C[C@@H]1CN(c2ccc(S(C)(=O)=O)cc2)C[C@H](C)N1C(=O)[C@@H]1CCCC[C@H]1C(=O)NC1(C#N)CC1" , reported IC50: 211

The reported value for "COc1cccc(N2CCN(C(=O)[C@@H]3CCCC[C@H]3C(=O)NCC#N)CC2)c1" in terms of IC50 is 8

Looking up "C[C@@H]1CN(c2ccc3c(c2)OCO3)CCN1C(=O)[C@@H]1CCCC[C@H]1C(=O)NC1(C#N)CC1" , I found its IC50 recorded as 9

IC50 reading for "N#CC1(NC(=O)[C@@H]2CCCC[C@H]2C(=O)N2CCN(c3ccccc3)CC2)CC1" : 15

Looking up "Cc1noc2cc(N3CCN(C(=O)[C@@H]4CCCC[C@H]4C(=O)NC4(C#N)CC4)[C@H](C)C3)ccc12" , I found its IC50 recorded as 16

The molecule "CC1(C)CN(c2ccc(S(C)(=O)=O)cc2)CCN1C(=O)[C@@H]1CCCC[C@H]1C(=O)NC1(C#N)CC1" showed IC50 equal to 45

Reported IC50 ( "Cc1nnc(C)c2cc(N3CCN(C(=O)[C@@H]4CCCC[C@H]4C(=O)NC4(C#N)CC4)[C@H](C)C3)ccc12" ) = 17

The molecule listed as "COc1ccc(N2CCN(C(=O)[C@@H]3CCCC[C@H]3C(=O)NC3(C#N)CC3)[C@H](C)C2)nc1OC" has a reported IC50 of 5

So, "CS(=O)(=O)c1ccc(N2CCN(C(=O)[C@@H]3CCCC[C@H]3C(=O)NCC#N)CC2)cc1" ? Its IC50 was 11

Short answer for "COc1ccc(N2CCN(C(=O)[C@@H]3CCCC[C@H]3C(=O)NCC#N)CC2)cc1" : IC50 was 6

Noted for "N#CCNC(=O)[C@@H]1CCCC[C@H]1C(=O)N1CCN(c2ccc(F)cc2)CC1" : its IC50 reads 23

Documented IC50 of "Cc1nn(C)c2cc(N3CCN(C(=O)[C@@H]4CCCC[C@H]4C(=O)NC4(C#N)CC4)[C@H](C)C3)ccc12" : 8

Per the records, this molecule ( CC1CN(c2ccc(S(C)(=O)=O)cc2)C(C)CN1C(=O)[C@@H]1CCCC[C@H]1C(=O)NC1(C#N)CC1 (some centres not stated) ) has IC50 equal to 312

Entry "COc1ccc(N2CCN(C(=O)[C@@H]3CCCC[C@H]3C(=O)NC3(C#N)CC3)CC2)cc1" ; IC50 = 14
